Values compiled from patent US20210301026A1.

Each entry below carries its reported koff.
Target desc: T1, monomeric human CSF1R ectodomain protein (human, UniProt P07333 20-517)
T1 construct: also called biotinylated monomeric human CSF1R
Assay details: SPR Biacore, IgG captured, monomeric CSF1R analyte
A number alone suffices; assume s⁻¹.

The following binders have reported results that may help.
// query Tell me measured koff for MH41 (antibody, human IgG4, V domains shown, Deimmunized MH5 derivative, human IgG4(S228P)/Ckappa IgG; also called MN41) VH: QVQLVQSGAEVKKPGSSVKVSCKASGYTFSSHYMIWVRQAPGQGLEWMGDINPYNGGANYAQKFQGRVTITADESTSTAYMELSSLRSEDTAVYYCAREGPYFSNLYVMDYWGRGTLVTVSS VL: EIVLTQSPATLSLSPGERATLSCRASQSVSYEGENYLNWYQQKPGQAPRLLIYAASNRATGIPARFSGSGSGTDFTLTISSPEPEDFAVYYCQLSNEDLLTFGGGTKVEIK please.
// result 0.00109

// query Tell me measured koff for MH29 (antibody, human IgG4, V domains shown, Deimmunized MH5 derivative, human IgG4(S228P)/Ckappa IgG) VH: QVQLVQSGAEVKKPGSSVKVSCKASGYTFSSNYMIWVRQAPGQGLEWMGDINPYNGGANYAQKFQGRVTITADESTSTAYMELSSLRSEDTAVYYCAREGPYFSNLYVMDYWGRGTLVTVSS VL: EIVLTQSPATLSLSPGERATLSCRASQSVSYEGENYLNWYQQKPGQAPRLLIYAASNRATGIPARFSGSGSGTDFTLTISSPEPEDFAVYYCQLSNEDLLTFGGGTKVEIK please.
// result 0.000961

Turning now to a further binder:
// query Tell me measured koff for MH40 (antibody, human IgG4, V domains shown, Deimmunized MH5 derivative, human IgG4(S228P)/Ckappa IgG) VH: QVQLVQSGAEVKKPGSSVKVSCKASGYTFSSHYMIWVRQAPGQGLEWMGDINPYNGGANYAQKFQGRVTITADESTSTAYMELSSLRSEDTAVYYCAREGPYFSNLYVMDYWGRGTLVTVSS VL: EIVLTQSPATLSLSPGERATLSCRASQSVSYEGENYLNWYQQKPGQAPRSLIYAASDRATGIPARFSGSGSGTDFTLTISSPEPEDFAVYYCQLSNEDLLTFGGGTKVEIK please.
// result 0.00113
